System: primary human tumor cell cultures, Pancreas
TEST CONDITIONS: 1 patient analyzed, 72 h
RECORDED METRIC: pIC50
For clarity, pIC50 is expressed as the negative log10 of concentration in mol/L.

Sure, the documented pIC50 for C/C(=N\Nc1nnc2c(n1)[nH]c1c(C)cccc12)c1ccccn1 is 5.22

----------
System: primary human tumor cell cultures, PMP (Pseudomyxoma Peritonei)
TEST CONDITIONS: 50 patients analyzed, 72 h
RECORDED METRIC: pIC50
For clarity, pIC50 is expressed as the negative log10 of concentration in mol/L.

Sure, the documented pIC50 for C/C(=N\Nc1nnc2c(n1)[nH]c1c(C)cccc12)c1ccccn1 [Compound A] is 5.03

FYI, the data here is from patent US10668056B2.
